Values were extracted from patent US12617779B2.

assay: Evaluation of conversion rate to active form in buffer solution (Experimental Example 1); type: physicochemical; conditions: pH5.5, 1 hr, 37° C., 25 umol/L in buffer solution
Measure Name: Residual rate (%)
Give bare numbers, in %.

Field: example entries. Status: answers known.
Compound	Residual rate, %
COCCN(CC1CCCCN1)C(=O)Oc1cc(O)c2c(=O)cc(-c3ccccc3Cl)oc2c1[C@H]1CCN(C)C[C@H]1O (stereo partly drawn)	77.5
CN1CC[C@H](c2c(OC(=O)N(Cc3ccccc3)CC3CCCCN3)cc(O)c3c(=O)cc(-c4ccccc4Cl)oc23)[C@H](O)C1 (stereo partly drawn)	92.7

Now for another entry.
The compound identified as CN1CC[C@H](c2c(OC(=O)N(C)CC3CCCCN3)cc(O)c3c(=O)cc(-c4ccccc4Cl)oc23)[C@H](O)C1 (stereo partly drawn) registered its Residual rate at 94.3
